# System: MDA-MB-435
# experiment: Cytotoxicity against human MDA-MB-435 cells assessed as cellular growth at 10 uM by SRB assay
# Assay type: functional
result-type: Activity

These solved cases illustrate the format of a correct answer.
structure | Activity
Cc1ccc(NC(=O)c2sc3nc(-c4cccs4)ccc3c2N)cc1C | 101.83%
Cc1ccc(C(=O)/C=C2/Nc3ccc(C)cc3OC2=O)cc1 | 106.99%
COc1ccc(S(=O)(=O)n2ccc(-c3ccc4c(c3)CCC(C)(C)O4)n2)cc1 | 74.3%
O=C(NCCc1ccccc1)c1cc2cccc([N+](=O)[O-])c2[nH]1 | 109.58%
O=C(Nc1nc2ccc(Cl)cc2s1)c1ccc(Cl)cc1 | 90.92%

# return recorded Activity for entry COc1ccc2[nH]c(C(=O)NCc3ccccc3)cc2c1
104.78%

----------
# Tested on: MDA-MB-435
# experiment: Cytotoxicity against human MDA-MB-435 cells assessed as cellular growth at 10 uM by SRB assay
# Format: functional
Activity values by entry
Reply with just the number (in %).

structure | Activity (%)
Nc1c(C(=O)Nc2ccc(Cl)c(Cl)c2)sc2nc(-c3cccs3)ccc12 | 83.41

Output Activity of CC1(C)CC(=O)c2cc3c(N)c(C(=O)Nc4ccccc4Cl)sc3nc2C1
105.18

Note Activity for the molecule shown: Nc1c(C(=O)Nc2cccc(Cl)c2)sc2nc3c(cc12)C(=O)CCC3
-39.08

Identify the reported Activity for the following entry. CC1(C)CCc2cc(-c3ccn(S(=O)(=O)c4ccccc4Cl)n3)ccc2O1
98.73

Give a short answer stating reported Activity for O=C(Nc1ccc2oc(=O)ccc2c1)c1ccc(-c2ccc(Br)cc2)o1 .
112.48

For the molecule Cc1ccc(S(=O)(=O)Oc2ccc(-c3cnc4ccccc4n3)cc2)cc1 , report Activity.
96.62

----------
Entries and their measured Activity follow.
# Test system: MOLT-4
# experiment: Cytotoxicity against human MOLT4 cells assessed as cellular growth at 10 uM by SRB assay
# Assay type: functional
Respond numerically; units are % and should not be typed.

Worked examples, 4 compounds total:
structure | Activity [%]
O=c1/c(=C/c2ccc(Cl)cc2Cl)sc2nc(-c3ccccc3)nn12 | 88.5
N#Cc1ccc(-n2nnc3ccccc32)cc1C#N | 93.32
COc1ccc(NC(=O)c2sc3nc4c(cc3c2N)C(=O)CCC4)cc1 | 115.9
Cc1ccc(NC(=O)c2sc3nc(-c4cccs4)ccc3c2N)cc1C | 80.3

// Input: Clc1ccccc1Nc1nnc(-c2ccncc2)s1 . Output its Activity only.
93.42

Report Activity for O=C(NCCc1ccc(Cl)cc1)c1[nH]c2ccccc2c1Cl
77.08

Complete the entry with Activity for Cc1ccc(C2=N/C(=C\c3ccccc3)C(=O)O2)cc1
91.17

Report Activity for CC1(C)CC(=O)c2cc3c(N)c(C(=O)Nc4ccccc4Cl)sc3nc2C1
104.6

Identify the reported Activity for the following entry. Cc1cc(C)c(NC(=O)c2sc3nc4c(cc3c2N)C(=O)CC(C)(C)C4)c(C)c1
100.05

Please look at this compound and report its Activity: COc1ccc(S(=O)(=O)n2ccc(-c3ccc4c(c3)CCC(C)(C)O4)n2)cc1
65.89

Provide one value: measured Activity of O=C(Nc1ccc2oc(=O)ccc2c1)c1ccc(-c2ccc(Cl)c(Cl)c2)o1
73.02

Let me know recorded Activity for O=S(=O)(Oc1ccc(-c2cnc3ccccc3n2)cc1)c1ccc2ccccc2c1 , thanks.
89.91

Numbers sourced from ChEMBL document CHEMBL2202954.
